Attribute: 8OG:A repair function score
B1: library; numbered along this chain (parent)
chain: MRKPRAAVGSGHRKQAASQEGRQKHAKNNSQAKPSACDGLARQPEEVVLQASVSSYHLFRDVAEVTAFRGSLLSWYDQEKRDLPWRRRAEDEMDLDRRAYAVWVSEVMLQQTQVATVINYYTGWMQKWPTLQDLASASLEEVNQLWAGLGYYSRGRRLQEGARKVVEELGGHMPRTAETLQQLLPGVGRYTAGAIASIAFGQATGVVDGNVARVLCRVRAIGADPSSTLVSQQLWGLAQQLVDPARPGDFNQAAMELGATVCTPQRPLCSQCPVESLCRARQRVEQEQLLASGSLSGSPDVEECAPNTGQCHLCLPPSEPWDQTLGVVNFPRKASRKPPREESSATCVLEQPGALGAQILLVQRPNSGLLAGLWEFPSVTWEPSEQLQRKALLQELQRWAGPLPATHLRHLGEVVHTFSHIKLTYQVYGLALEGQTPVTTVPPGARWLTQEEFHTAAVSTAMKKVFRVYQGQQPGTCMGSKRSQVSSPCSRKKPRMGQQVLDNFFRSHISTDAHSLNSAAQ

- Variants of: B1
- protocol: 8OG:A repair function score (normalized; synonymous = 0, nonsense = -1) (normalized log-likelihood score); higher = more repair activity (WT-like);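 note: cells sorted at 72 h after reporter transfection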
- conditionLabel: with 8OG:A DNA repair reporter (GFP) in HEK-293 MUTYH KO cells
property: 8OG:A repair function score

change	property	assayResult
D77C	8OG:A repair function score	-0.0754
S197R	8OG:A repair function score	-1.21
Q484K	8OG:A repair function score	0.0117
P316Q	8OG:A repair function score	0.0822
A280H	8OG:A repair function score	-0.731
C314R	8OG:A repair function score	-0.482
A457M	8OG:A repair function score	-0.585
S138E	8OG:A repair function score	-0.00767
F200V	8OG:A repair function score	-0.545
S270L	8OG:A repair function score	-0.0471
V48H	8OG:A repair function score	0.0666
R266Q	8OG:A repair function score	-0.165
F505N	8OG:A repair function score	0.0264
P317S	8OG:A repair function score	0.0611
A41S	8OG:A repair function score	-0.048
L183Y	8OG:A repair function score	0.0742
C216G	8OG:A repair function score	-0.663
L387W	8OG:A repair function score	-0.0182
F453S	8OG:A repair function score	-0.421
D133Y	8OG:A repair function score	-0.727
V261Q	8OG:A repair function score	-0.57
S226R	8OG:A repair function score	0.00193
P244D	8OG:A repair function score	-0.291
E178F	8OG:A repair function score	-0.0911
R446G	8OG:A repair function score	-0.67
G150H	8OG:A repair function score	-1.12
Y428E	8OG:A repair function score	-1.1
I195H	8OG:A repair function score	-1.14
L131I	8OG:A repair function score	-0.158
A212Y	8OG:A repair function score	-0.62
P185F	8OG:A repair function score	-0.285
V261L	8OG:A repair function score	-0.0765
P306M	8OG:A repair function score	-0.0214
G248V	8OG:A repair function score	-0.998
A203Y	8OG:A repair function score	-0.245
P352R	8OG:A repair function score	-0.124
M255H	8OG:A repair function score	-1.03
A51V	8OG:A repair function score	0.0738
Q388C	8OG:A repair function score	-0.459
L408H	8OG:A repair function score	-1.11
